The reported measurements were obtained from ChEMBL document CHEMBL5380794.

Entries and their DC50 values follow.
# Target under test: Signal transducer and activator of transcription 5A (Homo sapiens, UniProt P42229)
# Sequence (P42229 whole entry): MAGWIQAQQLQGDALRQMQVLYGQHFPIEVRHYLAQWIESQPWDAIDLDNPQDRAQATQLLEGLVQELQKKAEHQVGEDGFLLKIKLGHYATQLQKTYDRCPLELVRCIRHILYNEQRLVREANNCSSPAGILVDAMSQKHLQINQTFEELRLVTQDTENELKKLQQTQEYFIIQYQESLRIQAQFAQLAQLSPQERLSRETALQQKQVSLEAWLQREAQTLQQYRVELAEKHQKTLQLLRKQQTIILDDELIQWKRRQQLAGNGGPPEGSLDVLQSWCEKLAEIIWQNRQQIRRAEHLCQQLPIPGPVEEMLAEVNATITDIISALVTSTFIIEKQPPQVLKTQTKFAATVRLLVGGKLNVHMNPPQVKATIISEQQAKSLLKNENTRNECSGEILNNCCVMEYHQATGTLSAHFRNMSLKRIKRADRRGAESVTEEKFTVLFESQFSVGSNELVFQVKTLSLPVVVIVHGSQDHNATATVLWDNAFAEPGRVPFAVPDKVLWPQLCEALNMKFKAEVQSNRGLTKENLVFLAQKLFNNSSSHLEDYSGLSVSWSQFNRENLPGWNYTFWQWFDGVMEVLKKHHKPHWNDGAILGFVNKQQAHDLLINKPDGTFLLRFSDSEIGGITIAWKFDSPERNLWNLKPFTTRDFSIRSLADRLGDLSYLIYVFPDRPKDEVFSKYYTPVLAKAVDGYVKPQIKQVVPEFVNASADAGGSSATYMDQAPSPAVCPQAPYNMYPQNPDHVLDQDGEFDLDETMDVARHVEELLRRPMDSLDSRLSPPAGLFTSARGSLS
# Measurement notes: Induction of STAT5 degradation in human SKNO-1 cells measured for 18 hrs by Western blot analysis
# Type: cell-based

Below are worked cases with known answers.
{"Molecule": "CC(C)(C)c1ccc(N(CCC(=O)NCCCC#Cc2cccc3c2CN(C2CCC(=O)NC2=O)C3=O)C(=O)[C@@H]2CCCN2C(=O)[C@@H](NC(=O)c2cc3cc(C(F)(F)P(=O)(O)O)ccc3s2)C(C)(C)C)cc1 (some centres not stated)", "DC50": "> 5 µM"}
{"Molecule": "CC(C)(C)[C@H](NC(=O)c1cc2cc(C(F)(F)P(=O)(O)O)ccc2s1)C(=O)N1CCC[C@H]1C(=O)N(CCC(=O)NCCCC#Cc1cccc2c1CN(C1CCC(=O)NC1=O)C2=O)c1ccc2ncsc2c1 (some centres not stated)", "DC50": "> 5 µM"}
{"Molecule": "CC(C)(C)[C@H](NC(=O)c1cc2cc(C(F)(F)P(=O)(O)O)ccc2s1)C(=O)N1CCC[C@H]1C(=O)N(CCC(=O)NCCCC#Cc1cccc2c1CN(C1CCC(=O)NC1=O)C2=O)c1ccccc1 (some centres not stated)", "DC50": "> 5 µM"}
{"Molecule": "CC(C)(C)[C@H](NC(=O)c1cc2cc(C(F)(F)P(=O)(O)O)ccc2s1)C(=O)N1CCC[C@H]1C(=O)N(CCC(=O)NCCCC#Cc1cccc2c1CN(C1CCC(=O)NC1=O)C2=O)c1ccc(Cl)c(F)c1 (some centres not stated)", "DC50": "> 5 µM"}
{"Molecule": "CC(C)(C)[C@H](NC(=O)c1cc2cc(C(F)(F)P(=O)(O)O)ccc2s1)C(=O)N1CCC[C@H]1C(=O)N(CCC(=O)NCCCC#Cc1cccc2c1CN(C1CCC(=O)NC1=O)C2=O)c1ccc(C#N)cc1 (some centres not stated)", "DC50": "> 5 µM"}

Please look up its DC50: CC(C)(C)[C@H](NC(=O)c1cc2cc(C(F)(F)P(=O)(O)O)ccc2s1)C(=O)N1CCC[C@H]1C(=O)N(CCC(=O)NCCCC#Cc1cccc2c1CN(C1CCC(=O)NC1=O)C2=O)c1ccc(F)cc1 (some centres not stated) > 5 µM

Please look up its DC50: CC(C)(C)[C@H](NC(=O)c1cc2cc(C(F)(F)P(=O)(O)O)ccc2s1)C(=O)N1CCC[C@H]1C(=O)N(CCC(=O)NCCCC#Cc1cccc2c1CN(C1CCC(=O)NC1=O)C2=O)c1ccc(S(C)(=O)=O)cc1 (some centres not stated) > 5 µM
